assay.system: native amyloid plaques in unfixed brain sections of Tg2576 APP transgenic mice (human, UniProt P05067 672-713, limits assumed)
Sequence (P05067 672-713 limits assumed): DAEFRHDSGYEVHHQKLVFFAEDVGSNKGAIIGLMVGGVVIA
test.method.notes: cell-based or functional assay
recorded.metric: EC50 (µg/ml), ex vivo phagocytosis (µg/mL)
All answers are understood in µg/mL, so give the number only.

Need EC50 (µg/ml), ex vivo phagocytosis of 2.1 I (also described as 2.1 I K5R) (antibody, human IgG1, kappa, V domains shown, Humanized IgG) VH: QVTLRESGPALVKPTQTLTLTCTFSGFSLRTSGMGVGWIRQPPGKALEWLAHIWWDDDKSYNPSLKSQLTISKDTSKNQVVLTMTNMDPVDTATYYCARRNYYYDDYFAYWGQGTLVTVSS VL: DIVMTQSPLSLPVTPGEPASISCRSSQSIVHSNGNTYLEWYLQKPGQSPQLLIYKVSNRFSGVPDRFSGSGSGTDFTLKISRVEAEDVGVYYCFQGSHVPLTFGGGTKVEIKR , thanks.
0.69
